FYI, the data here is from the supplement of paper PMC10567573.

B1: WDR88 (parent)
chain: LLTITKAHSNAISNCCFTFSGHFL

variants of: B1; assay: protein stability index of a GFP-peptide fusion (GPS, HEK-293T) (PSI 1-6); higher = more stable; conditions: c terminus: a fixed tail appended;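 note: lentivirally expressed fusions sorted by FACS into six bins by GFP to DsRed ratio, PSI derived from sequencing read proportions per bin multiplied by bin number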
Measured Endpoint: protein stability index
Answers are plain numbers.

Example entries begin here.
LRTITKAHSNAISNCCFTFSGHFL [L2R] = 2.41
LLTITKAHSNAISNCCFEFSGHFL [T18E] = 1.84
LLTITKAHSNFISNCCFTFSGHFL [A11F] = 2.93

For each of the variants below, state protein stability index.
1. LLTITKAHSNAISNPCFTFSGHFL [C15P]
2. LLTITKAHSNAISNCCFTFSGHML [F23M]
3. LLTITKAHSNAISWCCFTFSGHFL [N14W]
4. LLTNTKAHSNAISNCCFTFSGHFL [I4N]
5. LLTIGKAHSNAISNCCFTFSGHFL [T5G]
6. LLTITKAHSNAISNCCFTCSGHFL [F19C]

A.
1. 2.19
2. 3.51
3. 2.37
4. 2.89
5. 2.73
6. 2.77

For each of the variants below, state protein stability index.
1. LLTITKAHSNAISNCCFTFSGHFQ [L24Q]
2. LLTITKAHSNAISTCCFTFSGHFL [N14T]
3. LLTITKAHSNAISNCCFNFSGHFL [T18N]
4. LLTSTKAHSNAISNCCFTFSGHFL [I4S]
5. LLTITKAHGNAISNCCFTFSGHFL [S9G]
6. LLTITKAHSNAISNCCFTWSGHFL [F19W]

A.
[2.64, 2.94, 3.85, 2.5, 2.8, 2.32]
